Test system: HIV-HXB
Experiment: Inhibition of syncytia formation, HIV-HXB (HTLV-IIIB)
Conditions: Human immunodeficiency virus 1, 18 h, read-out: HIV-HXB ED100, complete inhibition of syncytia formation
Measured EC100, listed per entry for reference.
Measurement type: EC100 (µg/mL)

Record smiles	Measurement type	Test result
CCCCCC(=O)Oc1c2c(S(=O)(=O)O)cc3cc(S(=O)(=O)O)c(c(OC(=O)CCCCC)c13)Cc1c(S(=O)(=O)O)cc3cc(S(=O)(=O)O)c(c(OC(=O)CCCCC)c3c1OC(=O)CCCCC)Cc1c(S(=O)(=O)O)cc3cc(S(=O)(=O)O)c(c(OC(=O)CCCCC)c3c1OC(=O)CCCCC)Cc1c(S(=O)(=O)O)cc3cc(S(=O)(=O)O)c(c(OC(=O)CCCCC)c3c1OC(=O)CCCCC)C2	EC100	16
CC(=O)Oc1c2c(S(=O)(=O)O)cc3cc(S(=O)(=O)O)c(c(OC(C)=O)c13)Cc1c(S(=O)(=O)O)cc3cc(S(=O)(=O)O)c(c(OC(C)=O)c3c1OC(C)=O)Cc1c(S(=O)(=O)O)cc3cc(S(=O)(=O)O)c(c(OC(C)=O)c3c1OC(C)=O)Cc1c(S(=O)(=O)O)cc3cc(S(=O)(=O)O)c(c(OC(C)=O)c3c1OC(C)=O)C2	EC100	16
CC=CC(=O)Oc1c2c(S(=O)(=O)O)cc3cc(S(=O)(=O)O)c(c(OC(=O)C=CC)c13)Cc1c(S(=O)(=O)O)cc3cc(S(=O)(=O)O)c(c(OC(=O)C=CC)c3c1OC(=O)C=CC)Cc1c(S(=O)(=O)O)cc3cc(S(=O)(=O)O)c(c(OC(=O)C=CC)c3c1OC(=O)C=CC)Cc1c(S(=O)(=O)O)cc3cc(S(=O)(=O)O)c(c(OC(=O)C=CC)c3c1OC(=O)C=CC)C2	EC100	16
CS(=O)(=O)c1cc2cc(S(C)(=O)=O)c3c(O)c2c(O)c1Cc1c(S(C)(=O)=O)cc2cc(S(C)(=O)=O)c(c(O)c2c1O)Cc1c(S(C)(=O)=O)cc2cc(S(C)(=O)=O)c(c(O)c2c1O)Cc1c(S(C)(=O)=O)cc2cc(S(C)(=O)=O)c(c(O)c2c1O)C3	EC100	500
O=C(O)CCCCCOc1c2c(S(=O)(=O)O)cc3cc(S(=O)(=O)O)c(c(OCCCCCC(=O)O)c13)Cc1c(S(=O)(=O)O)cc3cc(S(=O)(=O)O)c(c(OCCCCCC(=O)O)c3c1OCCCCCC(=O)O)Cc1c(S(=O)(=O)O)cc3cc(S(=O)(=O)O)c(c(OCCCCCC(=O)O)c3c1OCCCCCC(=O)O)Cc1c(S(=O)(=O)O)cc3cc(S(=O)(=O)O)c(c(OCCCCCC(=O)O)c3c1OCCCCCC(=O)O)C2	EC100	8
O=S(=O)(Nc1ccccc1)c1cc2cc(S(=O)(=O)Nc3ccccc3)c3c(O)c2c(O)c1Cc1c(S(=O)(=O)Nc2ccccc2)cc2cc(S(=O)(=O)Nc4ccccc4)c(c(O)c2c1O)Cc1c(S(=O)(=O)Nc2ccccc2)cc2cc(S(=O)(=O)Nc4ccccc4)c(c(O)c2c1O)Cc1c(S(=O)(=O)Nc2ccccc2)cc2cc(S(=O)(=O)Nc4ccccc4)c(c(O)c2c1O)C3	EC100	125

---

Measured EC50, listed per entry for reference.
Tested on: RSV
Test: Inhibition of RSV cytopathic effect in HEp2 cells
Assay type: cell-based
Details: human respiratory syncytial virus, HEp-2; HEp2 cells, cytopathic effect; read-out: ED50 RSV

Compound	Target	EC50 / µg/mL
C=CC1c2c(S(=O)(=O)O)cc3cc(S(=O)(=O)O)c(c(O)c3c2O)C(C=C)c2c(S(=O)(=O)O)cc3cc(S(=O)(=O)O)c(c(O)c3c2O)C(C=C)c2c(S(=O)(=O)O)cc3cc(S(=O)(=O)O)c(c(O)c3c2O)C(C=C)c2c(S(=O)(=O)O)cc3cc(S(=O)(=O)O)c1c(O)c3c2O (centres unmarked)	RSV	0.5
O=S(O)c1cc2cc(S(=O)O)c3c(O)c2c(O)c1Cc1c(S(=O)O)cc2cc(S(=O)O)c(c(O)c2c1O)Cc1c(S(=O)O)cc2cc(S(=O)O)c(c(O)c2c1O)Cc1c(S(=O)O)cc2cc(S(=O)O)c(c(O)c2c1O)C3	RSV	1
CC(=O)C1c2c(S(=O)(=O)O)cc3cc(S(=O)(=O)O)c(c(O)c3c2O)C(C(C)=O)c2c(S(=O)(=O)O)cc3cc(S(=O)(=O)O)c(c(O)c3c2O)C(C(C)=O)c2c(S(=O)(=O)O)cc3cc(S(=O)(=O)O)c(c(O)c3c2O)C(C(C)=O)c2c(S(=O)(=O)O)cc3cc(S(=O)(=O)O)c1c(O)c3c2O (centres unmarked)	RSV	4
COc1c2c(S(=O)(=O)O)cc3cc(S(=O)(=O)O)c(c(OC)c13)Cc1c(S(=O)(=O)O)cc3cc(S(=O)(=O)O)c(c(OC)c3c1OC)Cc1c(S(=O)(=O)O)cc3cc(S(=O)(=O)O)c(c(OC)c3c1OC)Cc1c(S(=O)(=O)O)cc3cc(S(=O)(=O)O)c(c(OC)c3c1OC)C2	RSV	1.5
O=S(=O)(O)c1c2c(O)c3c(O)c(c(S(=O)(=O)O)c(Br)c3c1Br)Cc1c(S(=O)(=O)O)c(Br)c3c(Br)c(S(=O)(=O)O)c(c(O)c3c1O)Cc1c(S(=O)(=O)O)c(Br)c3c(Br)c(S(=O)(=O)O)c(c(O)c3c1O)Cc1c(S(=O)(=O)O)c(Br)c3c(Br)c(S(=O)(=O)O)c(c(O)c3c1O)C2	RSV	0.5

---

System: HIV-HXB
Assay: Inhibition of syncytia formation, HIV-HXB (HTLV-IIIB)
Details: Human immunodeficiency virus 1, 18 h, read-out: HIV-HXB ED100, complete inhibition of syncytia formation
Measured EC100, listed per entry for reference.

Compound	EC100, µg/mL
CC(=O)C1c2c(S(=O)(=O)O)cc3cc(S(=O)(=O)O)c(c(O)c3c2O)C(C(C)=O)c2c(S(=O)(=O)O)cc3cc(S(=O)(=O)O)c(c(O)c3c2O)C(C(C)=O)c2c(S(=O)(=O)O)cc3cc(S(=O)(=O)O)c(c(O)c3c2O)C(C(C)=O)c2c(S(=O)(=O)O)cc3cc(S(=O)(=O)O)c1c(O)c3c2O (stereo not drawn)	63
O=C(O)CNS(=O)(=O)c1cc2cc(S(=O)(=O)NCC(=O)O)c3c(O)c2c(O)c1Cc1c(S(=O)(=O)NCC(=O)O)cc2cc(S(=O)(=O)NCC(=O)O)c(c(O)c2c1O)Cc1c(S(=O)(=O)NCC(=O)O)cc2cc(S(=O)(=O)NCC(=O)O)c(c(O)c2c1O)Cc1c(S(=O)(=O)NCC(=O)O)cc2cc(S(=O)(=O)NCC(=O)O)c(c(O)c2c1O)C3	32
COc1c2c(S(=O)(=O)O)cc3cc(S(=O)(=O)O)c(c(OC)c13)Cc1c(S(=O)(=O)O)cc3cc(S(=O)(=O)O)c(c(OC)c3c1OC)Cc1c(S(=O)(=O)O)cc3cc(S(=O)(=O)O)c(c(OC)c3c1OC)Cc1c(S(=O)(=O)O)cc3cc(S(=O)(=O)O)c(c(OC)c3c1OC)C2	32

---

Measured IC50, listed per entry for reference.
System: HSV-2
Assay: Plaque reduction assay, HSV-2, Vero cells
Type: cell-based, HSV-2 (333)
Settings: Human alphaherpesvirus 2, Vero

Molecule	Target	Relation	IC50, µg/mL
C=CC1c2c(S(=O)(=O)O)cc3cc(S(=O)(=O)O)c(c(O)c3c2O)C(C=C)c2c(S(=O)(=O)O)cc3cc(S(=O)(=O)O)c(c(O)c3c2O)C(C=C)c2c(S(=O)(=O)O)cc3cc(S(=O)(=O)O)c(c(O)c3c2O)C(C=C)c2c(S(=O)(=O)O)cc3cc(S(=O)(=O)O)c1c(O)c3c2O (stereo not shown)	HSV-2	>	10
CS(=O)(=O)c1cc2cc(S(C)(=O)=O)c3c(O)c2c(O)c1Cc1c(S(C)(=O)=O)cc2cc(S(C)(=O)=O)c(c(O)c2c1O)Cc1c(S(C)(=O)=O)cc2cc(S(C)(=O)=O)c(c(O)c2c1O)Cc1c(S(C)(=O)=O)cc2cc(S(C)(=O)=O)c(c(O)c2c1O)C3	HSV-2	>	10
O=S(=O)(NO)c1cc2cc(S(=O)(=O)NO)c3c(O)c2c(O)c1Cc1c(S(=O)(=O)NO)cc2cc(S(=O)(=O)NO)c(c(O)c2c1O)Cc1c(S(=O)(=O)NO)cc2cc(S(=O)(=O)NO)c(c(O)c2c1O)Cc1c(S(=O)(=O)NO)cc2cc(S(=O)(=O)NO)c(c(O)c2c1O)C3	HSV-2	=	4.2
O=S(=O)(O)c1cc2c(O)c(c1)Cc1cc(S(=O)(=O)O)cc(c1O)Cc1cc(S(=O)(=O)O)cc(c1O)Cc1cc(S(=O)(=O)O)cc(c1O)Cc1cc(S(=O)(=O)O)cc(c1O)Cc1cc(S(=O)(=O)O)cc(c1O)C2	HSV-2	=	11
